test: Stability assay in 25% TIDE 2X detergent with DTPA (residual Abz-AGLA-Nba protease activity); format: physicochemical; conditions: 60 min at 32°C; variant residual AGLA activity divided by wild-type residual activity
Property label: PI (relative stability), 25% TIDE 2X with DTPA
Provide a numeric answer; units are not to be included.

[ask] Tell me measured PI (relative stability), 25% TIDE 2X with DTPA for T278C: single-substitution thermolysin variant (SEQ ID NO:3 numbering) (protein, listed as Geobacillus caldoproteolyticus) ITGTSTVGVGRGVLGDQKNINTTYSTYYYLQDNTRGNGIFTYDAKYRTTLPGSLWADADNQFFASYDAPAVDAHYYAGVTYDYYKNVHNRLSYDGNNAAIRSSVHYSQGYNNAFWNGSQMVYGDGDGQTFIPLSGGIDVVAHELTHAVTDYTAGLIYQNESGAINEAISDIFGTLVEFYANKNPDWEIGEDVYTPGISGDSLRSMSDPAKYGDPDHYSKRYTGTQDNGGVHINSGIINKAAYLISQGGTHYGVSVVGIGRDKLGKIFYRALTQYLTPCSNFSQLRAAAVQSATDLYGSTSQEVASVKQAFDAVGVK please.
[reply] 1.05

[ask] Tell me measured PI (relative stability), 25% TIDE 2X with DTPA for Y151D: single-substitution thermolysin variant (SEQ ID NO:3 numbering) (protein, listed as Geobacillus caldoproteolyticus) ITGTSTVGVGRGVLGDQKNINTTYSTYYYLQDNTRGNGIFTYDAKYRTTLPGSLWADADNQFFASYDAPAVDAHYYAGVTYDYYKNVHNRLSYDGNNAAIRSSVHYSQGYNNAFWNGSQMVYGDGDGQTFIPLSGGIDVVAHELTHAVTDDTAGLIYQNESGAINEAISDIFGTLVEFYANKNPDWEIGEDVYTPGISGDSLRSMSDPAKYGDPDHYSKRYTGTQDNGGVHINSGIINKAAYLISQGGTHYGVSVVGIGRDKLGKIFYRALTQYLTPTSNFSQLRAAAVQSATDLYGSTSQEVASVKQAFDAVGVK please.
[reply] 1.12

[ask] Tell me measured PI (relative stability), 25% TIDE 2X with DTPA for Q273T: single-substitution thermolysin variant (SEQ ID NO:3 numbering) (protein, listed as Geobacillus caldoproteolyticus) ITGTSTVGVGRGVLGDQKNINTTYSTYYYLQDNTRGNGIFTYDAKYRTTLPGSLWADADNQFFASYDAPAVDAHYYAGVTYDYYKNVHNRLSYDGNNAAIRSSVHYSQGYNNAFWNGSQMVYGDGDGQTFIPLSGGIDVVAHELTHAVTDYTAGLIYQNESGAINEAISDIFGTLVEFYANKNPDWEIGEDVYTPGISGDSLRSMSDPAKYGDPDHYSKRYTGTQDNGGVHINSGIINKAAYLISQGGTHYGVSVVGIGRDKLGKIFYRALTTYLTPTSNFSQLRAAAVQSATDLYGSTSQEVASVKQAFDAVGVK please.
[reply] 1.08

[ask] Tell me measured PI (relative stability), 25% TIDE 2X with DTPA for T278Y: single-substitution thermolysin variant (SEQ ID NO:3 numbering) (protein, listed as Geobacillus caldoproteolyticus) ITGTSTVGVGRGVLGDQKNINTTYSTYYYLQDNTRGNGIFTYDAKYRTTLPGSLWADADNQFFASYDAPAVDAHYYAGVTYDYYKNVHNRLSYDGNNAAIRSSVHYSQGYNNAFWNGSQMVYGDGDGQTFIPLSGGIDVVAHELTHAVTDYTAGLIYQNESGAINEAISDIFGTLVEFYANKNPDWEIGEDVYTPGISGDSLRSMSDPAKYGDPDHYSKRYTGTQDNGGVHINSGIINKAAYLISQGGTHYGVSVVGIGRDKLGKIFYRALTQYLTPYSNFSQLRAAAVQSATDLYGSTSQEVASVKQAFDAVGVK please.
[reply] 1.05

Data origin: patent US9976134B2
